FYI, the data here is from ChEMBL document CHEMBL1201862.

Would you kindly list GI50 for each of these molecules?
- Test system: UO-31
- test: NCI tumour cell line growth inhibition, 48 h
The source made the active and inactive calls. No stated cut-off is given here; in the data, active = GI50 up to about 1.1 µM and inactive = higher.

Data request, read-out GI50, for `CCOC(=O)c1cc(=O)oc2c1N(C)c1ncccc1N2` 50.9 µM (inactive)

Data request, read-out GI50, for `Nc1ccnc2c1ncn2[C@H]1C[C@H](O)[C@@H](CO)O1` > 100 µM (inactive)

Data request, read-out GI50, for Nc1ccc(C(=O)NN2C(=O)C(Cl)C2c2cc(Br)ccc2O)cc1 (stereo unspecified) > 100 µM (inactive)

Data request, read-out GI50, for `Cc1ccc(S(=O)(=O)N2CCCSCC2)cc1` 35.2 µM (inactive)

Data request, read-out GI50, for `CCOc1c(/N=N/c2ccccc2Cl)c(-c2ccccc2)nn1C(=S)S` 35.6 µM (inactive)

Data request, read-out GI50, for `O=C1C[C@H](c2ccccc2)O[C@@H](c2ccccc2)C1` > 100 µM (inactive)

Data request, read-out GI50, for `O=c1c2c(nc3n1CCC3)sc1c(O)c(Br)ccc12` 18.8 µM (inactive)

Data request, read-out GI50, for CCOc1ncn(-c2ccc(NC(=S)NC3OC(CO)C(O)C(O)C3O)cc2)n1 (stereo unspecified) > 100 µM (inactive)

Data request, read-out GI50, for `Nc1ccc2c(c1)NC(=O)[C@@H]1CCCN1C2=O` > 100 µM (inactive)

Data request, read-out GI50, for `O=C(O)COc1cc(-c2ccccc2)nc2ccccc12` 61.4 µM (inactive)

Data request, read-out GI50, for Cn1c2ccccc2c2c3c(c4c5ccccc5n(C5OC(CO)C(O)C(O)C5O)c4c21)C(=O)OC3=O (stereo unspecified) > 100 µM (inactive)

====

Would you kindly list GI50 for each of these molecules?
- System: NCI-H522
- test: NCI tumour cell line growth inhibition, 48 h
The source made the active and inactive calls. Cut-off read from the data, not from the text of the source: active = GI50 up to about 1.1 µM and inactive = higher.

Data request, read-out GI50, for `CCOC(=O)c1[nH]cc(C)c1-c1ccc2c(-c3ccccc3)nc3ccccc3n12` 1.53 µM (inactive)

Data request, read-out GI50, for `O=[N+]([O-])c1ccc2c(/N=N/c3c(O)ccc4ccccc34)c(O)cc(S(=O)(=O)O)c2c1` 4.76 µM (inactive)

Data request, read-out GI50, for CCOc1ncn(-c2ccc(NC(=S)NC3OC(CO)C(O)C(O)C3O)cc2)n1 (stereo not given) > 100 µM (inactive)

Data request, read-out GI50, for COc1ccc2nc(NC(=O)C(=O)C(C#N)c3ccc([N+](=O)[O-])cc3)sc2c1 (stereo not given) 55.5 µM (inactive)

Data request, read-out GI50, for `CN(C)c1ccc(-c2c(C#N)c(S)n(NS(=O)(=O)c3ccccc3)c(=O)c2C#N)cc1` 14.7 µM (inactive)

Data request, read-out GI50, for `C/C(CC(=O)Nc1ccc(Cl)cc1)=N\NC(N)=S` 47.2 µM (inactive)

Data request, read-out GI50, for `S=C(Nc1ccc(Br)cn1)NC12CC3CC(CC(C3)C1)C2` 11.2 µM (inactive)

Data request, read-out GI50, for `C/C(=N\NC(N)=O)c1sc(-c2nc(C)c(/C(C)=N/NC(N)=O)s2)nc1C` 70.5 µM (inactive)

Data request, read-out GI50, for COc1cccc(C2C(C(=O)O)=C(CO)Oc3cc4c(cc32)OCO4)c1 (stereo not given) > 100 µM (inactive)

Data request, read-out GI50, for `Nc1ccc2c(c1)NC(=O)[C@@H]1CCCN1C2=O` > 100 µM (inactive)
